- TARGET_SYSTEM: T1, human DLL4 extracellular domain (human, UniProt Q9NR61 27-529)
- T1 construct: purified recombinant ECD; biotin-labelled or 6xHis-tagged depending on the assay; also called huDLL4 ECD; hu DLL4 ECD
- T1 sequence (Q9NR61 27-529 limits assumed): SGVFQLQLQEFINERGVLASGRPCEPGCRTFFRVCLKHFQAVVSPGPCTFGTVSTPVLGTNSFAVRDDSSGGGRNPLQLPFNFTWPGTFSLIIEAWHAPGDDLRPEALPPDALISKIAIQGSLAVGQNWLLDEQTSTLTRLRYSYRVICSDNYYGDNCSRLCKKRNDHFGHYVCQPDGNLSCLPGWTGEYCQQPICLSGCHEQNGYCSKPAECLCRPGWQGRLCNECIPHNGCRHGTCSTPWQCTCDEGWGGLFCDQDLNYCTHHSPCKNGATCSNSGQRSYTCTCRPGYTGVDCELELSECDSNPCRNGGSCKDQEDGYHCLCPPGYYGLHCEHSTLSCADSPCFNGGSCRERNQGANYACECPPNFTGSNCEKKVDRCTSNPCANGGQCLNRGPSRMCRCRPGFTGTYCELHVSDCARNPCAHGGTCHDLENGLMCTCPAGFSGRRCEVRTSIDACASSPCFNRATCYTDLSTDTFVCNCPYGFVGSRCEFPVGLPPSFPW
- PROCEDURE_SUMMARY: SPR (Biacore)
OBSERVATION_TYPE: kon (M⁻¹ s⁻¹)
Hi! Could you send only the number? It should be in M⁻¹ s⁻¹, unit omitted.

What measured kon goes with 15D6 rat anti-DLL4 monoclonal antibody (antibody, rat IgG2a, V domains shown, rat IgG2a/K hybridoma mAb; also called MC13-15D6.1G7) VH: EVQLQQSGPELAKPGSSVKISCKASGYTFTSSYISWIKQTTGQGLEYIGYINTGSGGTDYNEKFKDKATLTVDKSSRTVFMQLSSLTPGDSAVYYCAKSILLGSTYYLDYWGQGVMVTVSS VL: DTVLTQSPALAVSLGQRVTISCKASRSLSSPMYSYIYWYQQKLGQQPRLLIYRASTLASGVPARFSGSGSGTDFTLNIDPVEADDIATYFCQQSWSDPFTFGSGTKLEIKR ? 110000

What measured kon goes with 32C7 rat anti-DLL4 monoclonal antibody (antibody, rat IgG2a, V domains shown, rat IgG2a/k hybridoma mAb; also called MC10-32C7.5A4) VH: EVQLVESGGGLVQPGRSLKLSCLASGFPFSSVWMTWIRQAPGKGLEWIATITNSGASTYYSASVKGRFTISRDNVKSTLYLQMTSLGSEDTATYYCTRVGTSFDYWGQGVMVTVSS VL: DIQMTQSPASLSASLGETVTIECRASDDIYNGLAWFQQKPGKSPQLLIYDANTLHTGVPSRFSGSGSGTQFSLKINSLQSEDVASYFCQQFYDYPPYTFGAGTKLELKR ? 280000

What measured kon goes with 14A11 rat anti-DLL4 monoclonal antibody (antibody, rat IgG2a, V domains shown, rat IgG2a/K hybridoma mAb; also called MC13-14A11.3A4) VH: EVQLQQSGPELAKPGSSVKISCKASGYTFTNSYISWIKQTTGQGLEYVGYINTGSGGADYNEKFKGKATLTVDKSSRTAFMQLSSLTPGDSAVYYCAKSILLGSTCYFDYWGQGVLVTVSS VL: NTVLTQSPALAVSLGQRVTISCKASRSVSSPMYSYIYWYQQKPGQQPKLLIYRASTLASGVPARFSGSGSGTDFTLNIDPVEADDIATYFCQQSWSDPFTFGSGTKLEIKR ? 120000

What measured kon goes with 38H12 rat anti-DLL4 monoclonal antibody (antibody, rat IgG2a, V domains shown, rat IgG2a/k hybridoma mAb; also called MC10-38H12.2G8; 38H12 rat mAb) VH: EVQLVESGGGLVQPGRSLKLSCAASGFTFSNYGMYWIRQAPTKGLQWVAFISHGGGITYYRDSVKGRFTISRDNAKSTLYLQMDSLRSEDTATYHCAALNWELGIDYWGQGVMVTVSS VL: DIQMTQSPASLSASLGETISIECRASEDIYSNLAWYQKKSGKSPQLLIYAANRLQDGVPSRFSGSGSGTQYSLKISGMQPEDEGDYFCLQGSKFPLTFGSGTKLEIKR ? 400000
